Values were extracted from ChEMBL document CHEMBL3603825.

study system: D(3) dopamine receptor (Homo sapiens, UniProt P35462)
Sequence (P35462 whole entry): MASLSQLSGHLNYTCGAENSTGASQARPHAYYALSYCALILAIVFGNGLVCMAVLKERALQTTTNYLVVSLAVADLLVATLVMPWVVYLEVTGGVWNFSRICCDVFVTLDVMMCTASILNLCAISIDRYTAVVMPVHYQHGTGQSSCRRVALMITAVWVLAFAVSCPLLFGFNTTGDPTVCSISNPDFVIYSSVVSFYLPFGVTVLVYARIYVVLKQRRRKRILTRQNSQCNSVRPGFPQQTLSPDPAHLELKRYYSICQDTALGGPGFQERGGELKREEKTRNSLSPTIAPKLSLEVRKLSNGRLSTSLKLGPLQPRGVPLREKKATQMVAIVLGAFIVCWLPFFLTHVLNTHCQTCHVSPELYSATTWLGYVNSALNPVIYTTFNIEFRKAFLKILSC
method notes: Displacement of [3H]-sulpiride from human dopamine D3 receptor expressed in HEK293 cells at 100 nM after 150 mins by liquid scintillation counting
Assay type: cell-based
# if value of inhibition reaches 40%, tag y; if it stays below, tag n

*Q* Is the recorded value of inhibition equal to or greater than 40% for this molecule? Cc1ccc2nc(NC(=O)CCCCN3CCN(c4ccc(Cl)cc4)CC3)sc2c1
*A* n

*Q* Is the recorded value of inhibition equal to or greater than 40% for this molecule? O=C(CCCCN1CCN(c2ccc(Cl)cc2)CC1)Nc1nc2ccccc2s1
*A* y

*Q* Is the recorded value of inhibition equal to or greater than 40% for this molecule? O=C(CCCCN1CCN(c2ccc(Cl)cc2)CC1)Nc1nc2cc(Cl)ccc2o1
*A* n

*Q* Is the recorded value of inhibition equal to or greater than 40% for this molecule? O=C(CCCCN1CCN(c2ccc(Cl)cc2)CC1)Nc1nc2ccccc2[nH]1
*A* n

*Q* Is the recorded value of inhibition equal to or greater than 40% for this molecule? O=C(CCCCN1CCN(c2ccc(Cl)cc2)CC1)Nc1nc2ccc([N+](=O)[O-])cc2s1
*A* y

*Q* Is the recorded value of inhibition equal to or greater than 40% for this molecule? O=C(CCCCN1CCN(c2ccc(Cl)cc2)CC1)Nc1nc2ccccc2o1
*A* y
